The origin of these recorded values is paper PMC11488661.

- experimental.system: eOD-GT8 (monomeric ligand) (Human immunodeficiency virus 1, …)
Here the recorded log10 Kd is given for each entry.
readout.label: log10 Kd (log10 of the value in nM)

- binder: "g5-D78-7_CLK19 (antibody, V domains shown) VH: QVQLVQSGAEVKKPGASVKVSCKASGYTFTGYYIHWVRQAPGQGLEWMGWINPSYGAVNYARKFQGRVTMTRDTSISTAYMELQRLRSDDTAIYHCTIALAGYRWGFDYWGQGALVTVSS VL: DIQMTQSPSSLSAFVGDRVTITCQARLDISYSLNWYQQKPGKAPNLLIYDASNLETGVPSRFSGSGSGTNFTFAISALQPEDIATYYCQQYETFGPGTKVHIK"
  log10 Kd: 1.36
- binder: "g5-D78-5_CLK19 (antibody, V domains shown) VH: QVQLVQSGAEVKKPGASVKVSCKASGYTFTDYFLHWVRQAPGQGLEWMGWINPNRGGVNYAQKFQGRVTMTRDTSINTAYMELSRLRSDDTAVYYCTPILTNFRWRFDFWGQGTLVTVSS VL: DIQMTQSPSSLSASVGDRVTITCQASQDIQNYLNWYQQKPGTAPKLLIYDTSNLETGVPSRFSGSGSGTDFIFTISSLQPEDIATYYCQQYEAFGPGTKVDIK"
  log10 Kd: 0.30
- binder: "g28-D78-1_CLK09 (antibody, V domains shown) VH: QVQLVQSGAEVKKPGASVKVSCKTSGYTFTAYYVHWVRQAPGQGLEWMGWINPTNGATNYAQIFQGRVTMTRDTSISTAYMELNRLRSDDTAVYYCARVGGLWAFDIWGQGTIVTVSS VL: DIQMTQSPSSLSASVGDRVTITCQTSQHITRNLNWYQQKPGKAPKLLISDAYNLKIGVPSRFSGSGSGTDFTFTISSLQPEDVATYYCQQYEFFGGGTEVEIK"
  log10 Kd: 0.85
- binder: "g28v2-D38-11_CLK19 (antibody, V domains shown) VH: QVQLVQSGAEVKKPGASVKVSCKASGYTFTGYYMHWVRQAPGQGLEWMGWINPNSGGTNYAQIFQDRVTMTRDTSISTAYLELSRLRSDDTAVYYCTRVDGVWSFDIWGQGTMVTVSS VL: NIQMTQSPSSLSASVGDRVTITCQASQDISNYLNWYQQKPGKAPKILIYDASNLETGVPSRFSGSGSGTDFTFTISSLQPEDIATYYCQQYDTFGPGTKVDIK"
  log10 Kd: -1.37
- binder: "g28-D78-9_CLK09 (antibody, V domains shown) VH: QVQLVQSGAEVKKPGASVRVSCKASGYTFTGNYIHWVRQAPGQGLEWMGWLNPINGGTNHAQKFQGRVTMTRDTSISTAYMELSRLRSDDTTVYYCARVGGLWSGKGWTFDIWGQGTMVTVSS VL: DIQMTQSPSSLSASVGDRVTITCQASQDISILNWYQQKPGKAPKLLIYGASNLETGVPSRFSGSGSGTDFTFTISSLQPEDIATYYCQQYEFFGGGTKVEIK"
  log10 Kd: -0.72
- binder: "g28v2-D46-8_CLK09 (antibody, V domains shown) VH: QVQLVQSGAEVKKPGASVRVSCKASGYTFTDYYMHWVRQAPGQGLEWMGWINPNNGGINYAHKFQGRVTMTRDTSISTAYMELSRLRSDDTAVYYCTTALAGHGWRFDYWGQGTLVTVSS VL: DIQMTQSPSSLSASVGGRVTITCQASQGISTYLNWYQQKPGKAPKLLIYDVSNLETGVPSRFSGSGSGTDFTFTISSLQPEDFATYYCQQYEFFGGGTKVEIK"
  log10 Kd: -0.52
- binder: "g28v2-D38-9_CLK19 (antibody, V domains shown) VH: QVQLVQSGAEVKKPGASVKVSCKASGYTFTVYYMHWVRQAPGQGLEWMGWINPNSGGTNYPQKFQGRVTMTRDTSISTAYMELSRLRSDDTAVYYCALWFGEKKTFDIWGQGTMVTVSS VL: DIQMTQSPSSLSASVGDRVTITCQASQDIGNYLNWYQQKPGKAPKLLIYDTSNLETGVPSRFSGGGSGPDFTFTISTLQPEDIGTYYCQQYDTFGPGTKVDIK"
  log10 Kd: -0.83
- binder: "g28v2-D46-1_CLK19 (antibody, V domains shown) VH: QVQLVQSGAEVKKPGAAVKVSCKASGYTFTGYYIHWVRQAPGQGLEWMGWVNPKTGATNYAQKFQGRVTMTRDTSISTTYMELRRLRSDETAVYFCATVMADFRWPFDYWGQGTLVTVSS VL: DIQMTQSPSSLSASVGDRVTITCQASQDINNYLNWYQQKPGKAPKLLIYDTSNLGIGVPSRFSGSGSGTDFTFTISSLQPEDIGTYYCQQYDTFGPGTKVDIK"
  log10 Kd: 1.03
- binder: "g5-D78-1_CLK19 (antibody, V domains shown) VH: QVQLVQSGAEVKKPGASVKVSCKASGYTFTGYFLHWVRQAPGQGLEWMGWINPNRGGVNYAQKFQGRVTMTRDTSINTAYMELSRLRSDDSAVYYCTPVLTNFRWRFDFWGQGTLVTVSS VL: DIQMTQSPSSLSASVGDRVTITCQASQDIKNYLNWYQQKPGTAPKLLIYDTSNLETGVPSRFSGSGSGTDFTFTISSLQPEDIATYYCQQYETFGPGTKVDIK"
  log10 Kd: 0.90
- binder: "g28v2-D46-13_CLK19 (antibody, V domains shown) VH: QVQLVQSGAEVKKPGASVKVSCKASGYTFTGNYMHWVRQAPGQGLEWMGWINPNSGGTNYAQKFQGRVTMTRDTSISTAHMELRSLRSDDTAVYYCARVEGSWFGKKWTFDIWGQGTMVTVSS VL: AIQMTQSPSSLSASVGDRVTITCQASQDITNYLNWYQQKPGKAPKLLIYDASNLEAGVPSRFSGSGSGTDFTFTISGLQPEDIATYSCQQYETFGPGTKVDIK"
  log10 Kd: -0.71
